subject of test: Txk (h) (Homo sapiens (Human))
Sequence (P42681 whole entry): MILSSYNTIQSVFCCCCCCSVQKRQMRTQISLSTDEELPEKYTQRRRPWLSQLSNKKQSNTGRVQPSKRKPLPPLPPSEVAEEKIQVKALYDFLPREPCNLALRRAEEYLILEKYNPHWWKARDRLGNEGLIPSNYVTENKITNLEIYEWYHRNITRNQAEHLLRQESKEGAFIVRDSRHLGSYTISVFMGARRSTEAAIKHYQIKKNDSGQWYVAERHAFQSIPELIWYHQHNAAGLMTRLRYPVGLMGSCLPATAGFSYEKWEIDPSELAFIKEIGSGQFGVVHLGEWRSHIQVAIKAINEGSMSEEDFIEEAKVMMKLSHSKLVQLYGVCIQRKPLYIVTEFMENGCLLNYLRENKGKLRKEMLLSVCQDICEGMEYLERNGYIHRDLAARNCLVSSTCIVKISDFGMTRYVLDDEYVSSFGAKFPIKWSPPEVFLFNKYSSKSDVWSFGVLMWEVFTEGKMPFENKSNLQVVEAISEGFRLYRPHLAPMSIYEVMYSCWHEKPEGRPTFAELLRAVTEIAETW
pIC50: −log10 of the molar value.
parameter measured: pIC50

                                   compound  value
0  CC#CC(=O)N1CCC[C@H]1c1nc(-c2ccc(C(=O)Nc3ccccn3)cc2)c2c(N)nccn12 [ACP-196, Acalabrutinib, reference compound]   5.30

====

experiment description: Pharmacokinetic (PK) assay in rats
Assay type: in vivo, rat
condition context: plasma; male SD rat, 20 mg/kg oral
parameter measured: half-life (h)

In [3]: df
Out[3]:
                                   compound  parameter_measured  unit_tag  value
0  CC#CC(=O)N1CCC[C@H]1c1nc(-c2ccc(C(=O)Nc3ccccn3)cc2)c2c(N)nccn12 [ACP-196, Acalabrutinib, reference compound]           half-life         h    7.9
1  CC#CC(=O)N1CCC[C@H]1c1nc(-c2ccc(OCc3ccccc3)cc2)c2c(N)nccn12 [Compound 1]           half-life         h    4.2

====

experiment description: Pharmacokinetic (PK) assay in rats
Assay type: in vivo, rat
condition context: plasma; male SD rat, 20 mg/kg oral
parameter measured: Cmax

In [3]: df
Out[3]:
                                   compound  parameter_measured        value
0  CC#CC(=O)N1CCC[C@H]1c1nc(-c2ccc(OCc3ccccc3)cc2)c2c(N)nccn12                Cmax   1.54 µg/mL
1  CC#CC(=O)N1CCC[C@H]1c1nc(-c2ccc(C(=O)Nc3ccccn3)cc2)c2c(N)nccn12 [ACP-196, Acalabrutinib, reference compound]                Cmax  0.668 µg/mL

====

experiment description: Pharmacokinetic (PK) assay in rats
Type: in vivo, rat
condition context: plasma; male SD rat, 20 mg/kg oral
We begin with a simple list: items and their reported AUC(0-inf).
parameter measured: AUC(0-inf) (ng·h/mL)

In [3]: df
Out[3]:
                                   molecule  unit_tag  value
0  CC#CC(=O)N1CCC[C@H]1c1nc(-c2ccc(C(=O)Nc3ccccn3)cc2)c2c(N)nccn12 [ACP-196, Acalabrutinib, reference compound]   ng·h/mL   1400
1  CC#CC(=O)N1CCC[C@H]1c1nc(-c2ccc(OCc3ccccc3)cc2)c2c(N)nccn12   ng·h/mL   3490

====

experiment description: Pharmacokinetic (PK) assay in rats
Assay type: in vivo, rat
condition context: plasma; male SD rat, 20 mg/kg oral; read-out: AUC0-24
parameter measured: AUC(0-t) (ng·h/mL)

In [3]: df
Out[3]:
                                   compound  value
0  CC#CC(=O)N1CCC[C@H]1c1nc(-c2ccc(OCc3ccccc3)cc2)c2c(N)nccn12 [Compound 1]   3480
1  CC#CC(=O)N1CCC[C@H]1c1nc(-c2ccc(C(=O)Nc3ccccn3)cc2)c2c(N)nccn12 [ACP-196, Acalabrutinib, reference compound]   1300

====

Target or system BTK (Homo sapiens (Human)); recorded quantity pIC50.
pIC50: −log10 of the molar value.
parameter measured: pIC50

In [3]: df
Out[3]:
                                   compound             subject_of_test  parameter_measured         value
0  CC#CC(=O)N1CCC[C@H]1c1nc(-c2ccc(OCc3ccc(F)cc3)cc2)c2c(N)nccn12 [Compound 3]  BTK (Homo sapiens (Human))               pIC50        < 6.12
1  C=CC(=O)N1CCC[C@H]1c1nc(-c2ccc(OCc3ccccc3)cc2)c2c(N)nccn12 [Compound 21]  BTK (Homo sapiens (Human))               pIC50        ≥ 7.00
2  CC#CC(=O)N1CCC[C@H]1c1nc(-c2ccc(OCc3ccc(C(F)(F)F)cc3)cc2)c2c(N)nccn12 [Compound 2]  BTK (Homo sapiens (Human))               pIC50        < 6.12
3  CC#CC(=O)N1CCC[C@H]1c1nc(-c2ccc(OCc3cc(F)ccn3)cc2)c2c(N)nccn12 [Compound 6]  BTK (Homo sapiens (Human))               pIC50        < 6.12
4  CC#CC(=O)N1CCC[C@H]1c1nc(-c2ccc(OCCc3ccccc3)cc2)c2c(N)nccn12 [Compound 17]  BTK (Homo sapiens (Human))               pIC50  6.12 to 6.52
5  CC#CC(=O)N1CCC[C@H]1c1nc(-c2ccc(OCc3ccccc3)cc2)c2c(N)nccn12 [Compound 1]  BTK (Homo sapiens (Human))               pIC50        ≥ 7.00

====

subject of test: EGFR T790M/L858R (Homo sapiens, UniProt P00533, L858R/T790M)
Sequence (P00533 25-1210 T790M/L858R limits assumed): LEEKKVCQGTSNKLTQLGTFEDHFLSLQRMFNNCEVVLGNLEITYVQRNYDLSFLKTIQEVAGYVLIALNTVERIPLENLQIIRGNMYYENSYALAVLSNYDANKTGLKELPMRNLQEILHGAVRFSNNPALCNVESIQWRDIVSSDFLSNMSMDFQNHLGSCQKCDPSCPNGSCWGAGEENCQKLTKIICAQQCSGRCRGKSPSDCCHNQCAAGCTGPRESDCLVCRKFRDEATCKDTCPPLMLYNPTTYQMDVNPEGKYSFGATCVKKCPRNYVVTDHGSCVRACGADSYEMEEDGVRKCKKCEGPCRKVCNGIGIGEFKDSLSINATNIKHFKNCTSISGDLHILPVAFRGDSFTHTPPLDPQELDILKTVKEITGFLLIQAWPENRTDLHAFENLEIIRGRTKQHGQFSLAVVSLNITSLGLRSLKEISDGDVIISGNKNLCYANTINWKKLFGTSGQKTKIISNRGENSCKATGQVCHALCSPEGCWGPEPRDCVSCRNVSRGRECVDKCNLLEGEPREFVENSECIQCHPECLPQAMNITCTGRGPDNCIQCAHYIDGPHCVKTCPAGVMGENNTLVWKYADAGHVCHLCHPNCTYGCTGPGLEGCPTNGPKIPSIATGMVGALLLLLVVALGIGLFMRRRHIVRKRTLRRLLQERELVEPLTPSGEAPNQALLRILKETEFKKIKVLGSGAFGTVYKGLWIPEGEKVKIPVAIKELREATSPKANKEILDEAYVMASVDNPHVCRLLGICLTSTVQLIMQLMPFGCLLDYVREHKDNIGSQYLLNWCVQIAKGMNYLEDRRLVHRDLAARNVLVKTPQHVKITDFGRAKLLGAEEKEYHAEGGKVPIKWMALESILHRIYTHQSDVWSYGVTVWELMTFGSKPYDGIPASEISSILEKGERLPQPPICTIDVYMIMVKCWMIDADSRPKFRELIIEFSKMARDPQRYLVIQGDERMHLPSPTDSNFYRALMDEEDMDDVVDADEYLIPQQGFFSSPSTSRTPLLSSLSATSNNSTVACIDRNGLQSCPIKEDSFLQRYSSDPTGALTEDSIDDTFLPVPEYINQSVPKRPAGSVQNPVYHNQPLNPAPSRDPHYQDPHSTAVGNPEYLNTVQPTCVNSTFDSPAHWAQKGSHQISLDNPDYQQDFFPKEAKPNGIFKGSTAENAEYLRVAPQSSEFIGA
experiment description: EGFR activity inhibition assay (Caliper mobility shift)
condition context: Km ATP
parameter measured: IC50

                               entry_smiles  parameter_measured    value
0  CC#CC(=O)N1CCC[C@H]1c1nc(-c2ccc(OCc3ccccc3)cc2)c2c(N)nccn12                IC50  > 10 µM
